# tested system: T1, GST-MDM2 (human MDM2 residues 17-125) (human, UniProt Q00987 17-125)
# T1 construct: range 17-125; No removal of GST is reported; not shown: glutathione S-transferase (GST) tag encoded by vector pGEX-6P-2
# T1 sequence (Q00987 17-125): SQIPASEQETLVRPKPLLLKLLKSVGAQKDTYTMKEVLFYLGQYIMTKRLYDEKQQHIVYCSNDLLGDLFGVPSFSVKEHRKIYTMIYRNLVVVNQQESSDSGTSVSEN
# assay: direct binding of the FITC-labeled peptide to MDM2 (the text differs from Table 7)
pKd: −log10 of the molar value. Bridge positions count the residues as written; N and C are the ends. Square brackets hold non-standard residues; d marks the D form. hCys = N[C@@H](CCS)C(=O)O; AEEA = NCCOCCOCC(=O)O
endpoint: pKd

Ac-LTF[hCys]HYW[hCys]QLTS-{AEEA-K(FITC)-NH2} (bridge 4-8; not fully specified (bridges), No CPP) [peptide 8, Ac-LTFhCHYWhCQLTS-miniPEG-K(FITC)-NH2, stapled] ... 7.85
